- testSystem: T1, human SLC34A2 (human, UniProt O95436 1-690)
- T1 construct: whole, on cells; also called human solute carrier 34 A2; NaPi2b
- T1 sequence (looked up): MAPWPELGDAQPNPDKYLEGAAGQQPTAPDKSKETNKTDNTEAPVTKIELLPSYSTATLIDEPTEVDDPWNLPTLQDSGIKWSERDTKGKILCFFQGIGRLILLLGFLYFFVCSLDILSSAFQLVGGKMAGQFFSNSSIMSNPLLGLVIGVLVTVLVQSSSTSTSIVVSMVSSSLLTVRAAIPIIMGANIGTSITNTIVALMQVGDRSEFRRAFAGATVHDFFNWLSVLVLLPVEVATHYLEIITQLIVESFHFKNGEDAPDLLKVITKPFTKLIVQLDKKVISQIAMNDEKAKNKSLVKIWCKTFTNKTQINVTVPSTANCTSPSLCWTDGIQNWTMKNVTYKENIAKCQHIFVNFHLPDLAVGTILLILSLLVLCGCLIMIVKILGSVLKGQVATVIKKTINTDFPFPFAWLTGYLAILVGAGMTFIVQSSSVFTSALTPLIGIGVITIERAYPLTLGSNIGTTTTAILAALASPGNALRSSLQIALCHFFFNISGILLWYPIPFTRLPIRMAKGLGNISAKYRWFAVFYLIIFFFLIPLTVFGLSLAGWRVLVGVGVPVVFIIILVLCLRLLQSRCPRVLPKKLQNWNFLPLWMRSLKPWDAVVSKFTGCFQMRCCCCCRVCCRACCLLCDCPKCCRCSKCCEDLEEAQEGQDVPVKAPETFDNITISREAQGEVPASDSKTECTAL
- experimentSummary: FACS, OVCAR3 cells
Strictly below 4 nM in EC50: Fulfilled. Otherwise: Not fulfilled.

Strictly below 4 nM: is that where EC50 of xi94E9B12 hIgG1 (antibody, V domains shown, chimeric, hIgG1) VH: QVQLQQPGAELVKPGASVKMSCKASGYTFTSYNMQWVKQTYGQGLEWIGAISPGSGETSYNQNFKVKATLTADKISSTAYMQLSSLTSEDSAVYYCARAARAEGWFAYWGQGTLVTVSA VL: DIVMTQSHKFMSTSVGDRVSITCKASQDVGHAVVWYQQKPGQFPKLLIYWASTRHAGVPDRFTGSGSGTDFTLTISNVQSEDLADYFCQQFRSIPLTFGSGTKLEIK sits? Not fulfilled

Next binder: xi28G3C6B9 hIgG1 (antibody, V domains shown, chimeric, hIgG1) VH: QVQLQQPGAEVVKPGASVKMSCKASGYTFTSYIIHWVKQAPGQGLEWIGAIYPGNGDTSYSQRFKGKAKLTADKSSSTAYMQLNSLTSEDSVVYYCARGNNYGSPAWFGYWGQGTLVTVSA VL: DIVLTQSPVTLSVTPGDRVSLSCRASQSIGNFLYWYQQKSHESPRLLIKYASQSMSGIPSRFSGSGSGTDFTLSISRVETEDFGMYFCQQSNSWPVTFGAGTKLELK Not fulfilled

Next binder: xi90G10H7 hIgG1 (antibody, V domains shown, chimeric, hIgG1) VH: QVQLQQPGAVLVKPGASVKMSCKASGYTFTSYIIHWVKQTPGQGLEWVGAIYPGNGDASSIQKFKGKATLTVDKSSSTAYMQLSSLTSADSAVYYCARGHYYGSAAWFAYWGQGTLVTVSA VL: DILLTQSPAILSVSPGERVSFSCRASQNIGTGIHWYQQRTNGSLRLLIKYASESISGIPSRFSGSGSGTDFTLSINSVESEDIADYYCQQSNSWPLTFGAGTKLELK Fulfilled

Next binder: xi16E5D10 hIgG1 (antibody, V domains shown, chimeric, hIgG1) VH: QVQLQQPGAELVKPGASVMMSCKASGYTFSNHNLHWLKKTPGQGLDWIGAIYPGNGDTSYNQKFKGRATLTVDKSSNTAYMQFSSLTSEDSAVFYCARGKYGNGAMDYWGQGTAVTVSS VL: DIVMTQSHKFMSTSVGDRVSITCRASQDVGTAVVWYQQKLGQSPKLLFDWASSRHTGVPDRFTGSGSGTDFTLTITDVQSEDLADYFCQQYSRQPLTFGAGTKLELK Not fulfilled

Next binder: xi18G1H4 hIgG1 (antibody, V domains shown, chimeric, hIgG1) VH: QVQLQQPGAELVKPGASVRMSCKASAYTFTTYNLHWVKQTPGQGLEWIGAISPGNGVTSYNQKFRGKATLTADKSSSTAYMQLSSLTSEDSAVYYCARGYGYSVGAMDYWGQGTSVTVSS VL: DIQMTQTTSSLSASLGDRVNISCSASQGIGNFLNWYQQKPDGTVKLLIYYTSSLHSGVPPRFSGSGSGTDYSLTISNLEPEDIATYYCQQYHKLPLTFGAGTKLELK Fulfilled
